Kindly supply the reported IC50 values for the records listed here.
# system: Full-length human PRMT8 (Homo sapiens, UniProt Q9NR22)
# Construct: Full-length human PRMT8 (NM_019854.4) isoform 1 transcript clone
# Sequence (Q9NR22 whole entry, canonical isoform): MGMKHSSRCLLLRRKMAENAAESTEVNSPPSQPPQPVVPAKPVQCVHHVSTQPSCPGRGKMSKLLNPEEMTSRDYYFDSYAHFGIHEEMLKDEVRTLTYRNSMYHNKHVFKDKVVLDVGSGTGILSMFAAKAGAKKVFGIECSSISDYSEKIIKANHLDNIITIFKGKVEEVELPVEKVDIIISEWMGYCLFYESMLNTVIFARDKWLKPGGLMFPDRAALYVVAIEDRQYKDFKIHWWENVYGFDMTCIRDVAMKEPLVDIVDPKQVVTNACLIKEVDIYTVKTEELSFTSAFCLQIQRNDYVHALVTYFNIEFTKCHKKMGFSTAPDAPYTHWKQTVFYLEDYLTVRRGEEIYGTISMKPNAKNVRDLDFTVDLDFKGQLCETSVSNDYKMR
# test.method.notes: PRMT8 biochemical assay (3H-SAM Flashplate, peptide substrate)

*Q* I would be grateful if you could share the reported IC50 for COc1ccc(F)cc1-c1n[nH]cc1CN(C)CCN .
*A* 3.01 to 10 µM

*Q* Now the same for CN(CCN)Cc1c[nH]nc1-c1ccc(C(F)(F)F)c(Cl)c1
*A* < 0.1 µM

*Q* Same thing, different compound: CNCCN(C)Cc1c[nH]nc1-c1cccc2ccccc12
*A* 0.101 to 1 µM

*Q* Query CC(C)Cc1ccc(-c2c[nH]nc2CN(C)CCN)cc1 next
*A* 0.101 to 1 µM

*Q* Moving on to COc1cc(-c2n[nH]cc2CN(C)CCN)ccc1F
*A* 0.101 to 1 µM

*Q* Now this one: CCn1ncc(CN(C)CCNC)c1-c1ccc(F)cc1
*A* 3.01 to 10 µM

*Q* Could you do the same for CNCCN(C)Cc1c[nH]nc1-c1cc(F)ccc1F , please?
*A* 1.01 to 3 µM

*Q* Moving on to CNCCN(C)Cc1c[nH]nc1-c1ccccc1NS(C)(=O)=O
*A* > 10 µM

*Q* Another compound to look at: CNCCN(C)Cc1cn(CC(=O)O)nc1-c1ccc(OC(C)C)cc1
*A* 1.01 to 3 µM

*Q* And what about the compound CN(CCN)Cc1c[nH]nc1-c1ccccc1C#N ?
*A* 3.01 to 10 µM

*Q* Now consider CNCCN(C)Cc1c[nH]nc1-c1ccc(-c2ccccc2)cc1 and answer again.
*A* < 0.1 µM

*Q* Try this compound too: COCCOc1ccc(-c2n[nH]cc2CN(C)CCN)cc1
*A* 0.101 to 1 µM

*Q* Repeat for the following compound: CN(CCN)Cc1cnn(C)c1-c1ccc(F)cc1
*A* 1.01 to 3 µM

*Q* Also CCN(CC)C(=O)c1ccc(-c2n[nH]cc2CN(C)CCN)cc1 ?
*A* 1.01 to 3 µM

*Q* # iterate: CNCCN(C)Cc1c[nH]nc1-c1ccc(F)c(F)c1
*A* 0.101 to 1 µM

*Q* Would you mind doing CN(CCN)Cc1cn(C)nc1-c1ccc(F)cc1 as well?
*A* 0.101 to 1 µM

*Q* // same read-out, input: CN(CCN)Cc1c[nH]nc1-c1ccc(F)cc1Cl
*A* 1.01 to 3 µM

*Q* And for CN(CCN)Cc1c[nH]nc1-c1ccc(Oc2ccccc2)c(C#N)c1 ?
*A* 0.101 to 1 µM

*Q* Next: CNCCN(C)Cc1cn(CCCC(O)CO)nc1-c1ccc(F)cc1 (stereo not drawn)
*A* > 10 µM

*Q* Param item: CN(CCN)Cc1c[nH]nc1-c1ccc(C#N)cc1
*A* 0.101 to 1 µM

*Q* What do you have for CN(CCN)Cc1n[nH]cc1-c1ccc(Cl)cc1 ?
*A* 0.101 to 1 µM

---

# system: Full-length human PRMT3 (Homo sapiens, UniProt O60678)
# Construct: GST-tagged PRMT3; made in house; host or cells: E. coli BL21(DE3) Gold (pGEX-KG)
# Sequence (O60678 with tags, fused parts or gaps): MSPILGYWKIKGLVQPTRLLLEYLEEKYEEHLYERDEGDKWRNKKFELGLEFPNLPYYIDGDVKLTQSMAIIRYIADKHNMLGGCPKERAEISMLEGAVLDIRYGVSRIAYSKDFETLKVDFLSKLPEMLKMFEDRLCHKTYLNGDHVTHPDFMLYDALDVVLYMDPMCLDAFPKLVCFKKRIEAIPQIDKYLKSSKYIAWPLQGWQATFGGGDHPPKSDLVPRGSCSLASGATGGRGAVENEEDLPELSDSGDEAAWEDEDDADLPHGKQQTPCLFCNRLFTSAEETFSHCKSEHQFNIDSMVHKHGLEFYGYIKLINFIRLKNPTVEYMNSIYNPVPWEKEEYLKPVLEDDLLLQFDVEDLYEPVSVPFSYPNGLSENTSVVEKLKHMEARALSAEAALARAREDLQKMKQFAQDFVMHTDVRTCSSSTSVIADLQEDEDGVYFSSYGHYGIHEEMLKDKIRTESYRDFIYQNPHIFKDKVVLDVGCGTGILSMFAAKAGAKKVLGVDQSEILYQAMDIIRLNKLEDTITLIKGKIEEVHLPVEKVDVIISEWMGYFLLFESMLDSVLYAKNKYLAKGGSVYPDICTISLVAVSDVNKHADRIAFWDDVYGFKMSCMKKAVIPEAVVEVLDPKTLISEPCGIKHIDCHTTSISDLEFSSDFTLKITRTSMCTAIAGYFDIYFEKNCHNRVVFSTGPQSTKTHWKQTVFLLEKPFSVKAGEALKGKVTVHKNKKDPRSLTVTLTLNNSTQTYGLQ
# test.method.notes: PRMT3 biochemical assay (3H-SAM Flashplate, peptide substrate)
# Text: General Materials. […] General Procedure for PRMT3 Enzyme Assays on Peptide Substrates. […] The plates were then read in a PerkinElmer TopCount plate reader to measure the quantity of ^3H-labeled peptide bound to the Flashplate surface, measured as disintegrations per minute (dpm) or alternatively, referred to as counts per minute (cpm). […]
pIC50: −log10 of the molar value.
quantity.kind: pIC50

*Q* Requested field: pIC50. Item: CN(CCN)Cc1nn(C)cc1-c1ccc(C#N)cc1 [Compound 83]
*A* < 5.00

*Q* Follow-up item: CN(CCN)Cc1n[nH]cc1-c1ccc(C2CCOCC2)cc1 [Compound 145]
*A* 5.00 to 5.52

*Q* And then CNCCN(C)Cc1c[nH]nc1-c1cc(F)ccc1F [Compound 50] , what is it?
*A* < 5.00

*Q* Same read-out for CC(C)CN(C)C(=O)c1ccc(-c2n[nH]cc2CN(C)CCN)cc1 [Compound 164] ?
*A* < 5.00

*Q* Also check CN(CCN)Cc1c[nH]nc1-c1cccc(Cl)c1F [Compound 123]
*A* 5.00 to 5.52

*Q* Then COc1ccc(-c2n[nH]cc2CN(C)CCN)c(C)c1 [Compound 155] ?
*A* 5.00 to 5.52

*Q* Another compound: CNCCN(C)Cc1cnn(C2CC2)c1-c1ccc(F)cc1 [Compound 14]
*A* < 5.00

*Q* How about CC(C)Oc1ccc(-c2n[nH]cc2CN(C)CCN)cc1F [Compound 97] ?
*A* 5.00 to 5.52

*Q* Follow-up entry: CN(CCN)Cc1c[nH]nc1-c1ccccc1 [Compound 73]
*A* < 5.00

*Q* Next: Cc1ccc(-c2n[nH]cc2CN(C)CCN)c(F)c1 [Compound 108]
*A* 5.00 to 5.52

*Q* Record: CN(CCN)Cc1c[nH]nc1-c1ccc(C(F)(F)F)c(F)c1 [Compound 141]
*A* 5.00 to 5.52

*Q* Note, next up: CNCCN(C)Cc1c[nH]nc1-c1ccc(Oc2ccccc2)cc1 [Compound 37]
*A* 6.00 to 7.00

*Q* Same again, this time with COc1cc(F)ccc1-c1n[nH]cc1CN(C)CCN [Compound 151]
*A* < 5.00

*Q* Could you do the same for CNCCN(C)Cc1c[nH]nc1-c1ccccc1C(F)(F)F [Compound 38] , please?
*A* < 5.00

*Q* Next entry: CN(CCN)Cc1c[nH]nc1-c1ccc(N2CCNCC2)cc1 [Compound 82]
*A* 5.52 to 6.00

*Q* Lookup COc1ccc(Cl)cc1-c1n[nH]cc1CN(C)CCN [Compound 157]
*A* < 5.00

*Q* What do you get for CN(CCN)Cc1c[nH]nc1-c1ccc(C(F)(F)F)cc1C(F)(F)F [Compound 85] ?
*A* < 5.00

*Q* Next compound up: CN(CCN)Cc1c[nH]nc1-c1ccc(Cl)c(F)c1 [Compound 118]
*A* 5.52 to 6.00

*Q* Another compound to check: CN(CCN)Cc1cnn(C)c1-c1ccc(F)cc1 [Compound 4]
*A* < 5.00

*Q* Next record, please: CN(CCN)Cc1c[nH]nc1-c1ccc(C(F)(F)F)cc1 [Compound 92]
*A* 5.00 to 5.52

*Q* CNCCN(C)Cc1c[nH]nc1-c1ccccc1OC [Compound 23] , same question.
*A* < 5.00
